Target: Cyclin-dependent kinase 4 (Homo sapiens)
Sequence (P11802 whole entry): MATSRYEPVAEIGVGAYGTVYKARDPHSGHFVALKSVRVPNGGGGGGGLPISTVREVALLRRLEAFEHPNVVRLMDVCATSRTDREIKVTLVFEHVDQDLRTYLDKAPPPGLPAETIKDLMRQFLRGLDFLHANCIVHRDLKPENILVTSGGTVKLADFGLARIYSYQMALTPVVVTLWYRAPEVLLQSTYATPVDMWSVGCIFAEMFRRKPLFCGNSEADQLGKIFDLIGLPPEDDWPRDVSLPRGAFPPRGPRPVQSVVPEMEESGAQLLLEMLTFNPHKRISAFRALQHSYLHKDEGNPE
pIC50: −log10 of the molar value.
Think of 5 as a floor: if pIC50 stands on it or above, it is YES; beneath it, NO.

| molecule | categoryLabel |
| --- | --- |
| CN(C)CC(O)COc1ccc(Nc2cc(Nc3ccc(F)cc3F)ncn2)cc1 (stereo unspecified) | NO |
| CN(C)CC(O)COc1ccc(Nc2cc(Nc3ccccc3Br)ncn2)cc1 (stereo unspecified) | YES |
| CN(C)CC(O)COc1ccc(Nc2cc(N(Cc3ccccc3)c3cc(Cl)ccc3Cl)ncn2)cc1 (stereo unspecified) | YES |
| C#CCN(c1cc(Nc2ccc(OCC(O)CN(C)C)cc2)ncn1)c1cc(Cl)ccc1Cl (stereo unspecified) | YES |

Consider now this further molecule.
Inquiry: Test whether the molecule COc1ccccc1Nc1cc(Nc2ccc(OCC(O)CN(C)C)cc2)ncn1 (stereo unspecified) records pIC50 of 5 or higher.
Reply text: NO
